Exercise: state measured OD (450nm, 参考630nm) for each of the binders provided.
- system: T1, DENV抗原 (DENV阳性血清) (dengue virus (DENV), serotype )
- T1 construct: also called DENV antigen in DENV-positive serum
- protocol_notes: sandwich ELISA, antibody at 0 ng/ml (blank without antibody), goat anti-mouse IgG, DENV-positive serum, HRP-labelled DENV mAb
Field note: include the unit after the figure.

In: Need OD (450nm, 参考630nm), item DF-5M32RMb4 (antibody, mouse IgG1, kappa, V domains shown, also called DF-8F13RMb4) VH: QVQLQQSGAELARPGASVKLSCKASGYTFINYWMQWVKQRPGQGLEWIGAIYPGDGDTRYTQNFKGKAALTADKSSSTAYMQLSSLASEDSAVYYCATGTEGLLDYWGQGTSVTVSS VL: DAVMTQTPLTLSVLIGQPASLSCKSSQSLLESDGKTYLNWLFQRPGQSPKRLIYLVSKLESGVPDRFTGSGSGTEFTLKISRVEAEDLGVYYCWQATHHPLTFGTGTNLELKR
Out: 0.032 OD

In: Need OD (450nm, 参考630nm), item DF-5M32RMb2 (antibody, mouse IgG1, kappa, V domains shown, also called DF-8F13RMb2) VH: QVQLQQSGAELARPGASVKLSCKASGYTFLNYWMQWVKQRPGQGLEWIGAIYPGDGDTRYTQNFKGKAALTADKSSSTAYMQLSSLASEDSAVYYCATGTEGLLDYWGQGTSVTVSS VL: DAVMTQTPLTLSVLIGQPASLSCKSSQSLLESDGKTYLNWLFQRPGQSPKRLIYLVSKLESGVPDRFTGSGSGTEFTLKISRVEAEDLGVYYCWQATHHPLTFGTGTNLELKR
Out: 0.031 OD

In: Need OD (450nm, 参考630nm), item DF-5M32RMb3 (antibody, mouse IgG1, kappa, V domains shown, also called DF-8F13RMb3) VH: QVQLQQSGAELARPGASVKLSCKASGYTFLNYWMQWVKQRPGQGLEWIGAIYPGDGDTRYTQNFKGKAALTADKSSSTAYMQLSSLASEDSAVYYCATGTEGILDYWGQGTSVTVSS VL: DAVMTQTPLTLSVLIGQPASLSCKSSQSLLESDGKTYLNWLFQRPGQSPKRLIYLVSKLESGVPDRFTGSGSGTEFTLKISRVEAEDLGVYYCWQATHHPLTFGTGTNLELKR
Out: 0.043 OD

In: Need OD (450nm, 参考630nm), item DF-5M32RMb1 (antibody, mouse IgG1, kappa, V domains shown, also called Anti-DF 5M32; Anti-DF 5M32单克隆抗体 (recombinant)) VH: QVQLQQSGAELARPGASVKLSCKASGYTFINYWMQWVKQRPGQGLEWIGAIYPGDGDTRYTQNFKGKAALTADKSSSTAYMQLSSLASEDSAVYYCATGTEGILDYWGQGTSVTVSS VL: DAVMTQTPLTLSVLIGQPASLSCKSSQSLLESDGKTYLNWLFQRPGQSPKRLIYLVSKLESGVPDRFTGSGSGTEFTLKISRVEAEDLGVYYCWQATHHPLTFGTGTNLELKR
Out: 0.039 OD
